Compounds remaining (%) 24 h values, listed per item
assay: Stability in human serum (LC-MS); assay type: in vitro ADME; settings: human serum, 200 μM, 37° C., 24 h
Numbered stars: 1 amine (or outer) side, 2 acyl side, 3 side chain; on linkers, the order of the positions; unused ones are H or OH. Square brackets hold non-standard residues; d marks the D form. Peptide text beside a SMILES is read from it. * marks the point of attachment. X1 = O=C(CCC(=O)[*:2])OCC(N[*:1])C(O)c1ccc([N+](=O)[O-])cc1; Dichloroacetyl = O=C(C(Cl)Cl)*

# molecule, readout.unit, Compounds remaining (%) 24 h
measured = [
    ("O=C(O)CCC(=O)OC[C@@H](NC(=O)C(Cl)Cl)[C@H](O)c1ccc([N+](=O)[O-])cc1 [CLsu, chloramphenicol succinate, reference compound]", "%", 87.0),
    ("O=C(CCC(=O)OCC(NC(=O)C(Cl)Cl)C(O)c1ccc([N+](=O)[O-])cc1)NCC(=O)NCC(=O)NC(Cc1ccccc1)C(=O)NC(Cc1ccccc1)C(=O)O (centres unmarked) [Compound 1o] (Dichloroacetyl-[X1]GGFF-OH; configuration not given here)", "%", 0),
]
